So I've got a bunch of compounds here, and I need their pIC50 values.
pIC50: −log10 of the molar value.

Lookup: Under Cytochrome P450 2D6 (Homo sapiens, UniProt P10635), report pIC50 for CCS(=O)(=O)c1ccc2nc(-c3cc(-c4ccccc4)ccc3C)[nH]c2c1
Found: 4.85

Lookup: Under Cytochrome P450 2D6 (Homo sapiens, UniProt P10635), report pIC50 for CCCS(=O)(=O)c1ccc2nc(-c3cccc(C(F)(F)F)c3)[nH]c2c1
Found: < 4.70

Lookup: Under Cytochrome P450 2D6 (Homo sapiens, UniProt P10635), report pIC50 for CCS(=O)(=O)c1ccc2nc(-c3cccc(-c4ccccc4)c3C)[nH]c2c1
Found: < 4.70

Lookup: Under Cytochrome P450 2D6 (Homo sapiens, UniProt P10635), report pIC50 for O=c1ccc(-c2nc3cc(S(=O)(=O)CC(F)(F)F)ccc3[nH]2)cn1-c1ccccc1
Found: < 4.70

Lookup: Under Cytochrome P450 2D6 (Homo sapiens, UniProt P10635), report pIC50 for CCS(=O)(=O)c1ccc2nc(-c3ccc(F)c(-c4ccccc4)c3)[nH]c2c1
Found: 4.80

Lookup: Under Cytochrome P450 2D6 (Homo sapiens, UniProt P10635), report pIC50 for CCCS(=O)(=O)c1ccc2[nH]c(-c3cccc(-c4ccccc4)c3)nc2c1
Found: < 4.70

Lookup: Under Cytochrome P450 2D6 (Homo sapiens, UniProt P10635), report pIC50 for CCS(=O)(=O)c1ccc2[nH]c(-c3cncc(-c4ccccc4)c3)nc2c1
Found: < 4.70

Lookup: Under Cytochrome P450 2D6 (Homo sapiens, UniProt P10635), report pIC50 for CCCS(=O)(=O)c1ccc2nc(-c3ccc(-c4ccccc4)cc3)[nH]c2c1
Found: 4.82

Lookup: Under Cytochrome P450 2D6 (Homo sapiens, UniProt P10635), report pIC50 for CCS(=O)(=O)c1ccc2nc(-c3ccc(C)c(-c4ccccc4)c3)[nH]c2c1
Found: < 4.70

Lookup: Under Cytochrome P450 2D6 (Homo sapiens, UniProt P10635), report pIC50 for CCS(=O)(=O)c1ccc2nc(-c3cccc(-c4ccccc4)c3F)[nH]c2c1
Found: < 4.70

Lookup: Under Cytochrome P450 2D6 (Homo sapiens, UniProt P10635), report pIC50 for CCCS(=O)(=O)c1ccc2[nH]c(-c3ccc(=O)n(-c4ccccc4)c3)nc2c1
Found: < 4.70

Lookup: Under Cytochrome P450 2D6 (Homo sapiens, UniProt P10635), report pIC50 for CCS(=O)(=O)c1ccc2[nH]c(-c3cccc(-c4ccccc4)c3Cl)nc2c1
Found: 4.74

---

Biological target: UniProtKB P08684
Sequence (P08684 whole entry): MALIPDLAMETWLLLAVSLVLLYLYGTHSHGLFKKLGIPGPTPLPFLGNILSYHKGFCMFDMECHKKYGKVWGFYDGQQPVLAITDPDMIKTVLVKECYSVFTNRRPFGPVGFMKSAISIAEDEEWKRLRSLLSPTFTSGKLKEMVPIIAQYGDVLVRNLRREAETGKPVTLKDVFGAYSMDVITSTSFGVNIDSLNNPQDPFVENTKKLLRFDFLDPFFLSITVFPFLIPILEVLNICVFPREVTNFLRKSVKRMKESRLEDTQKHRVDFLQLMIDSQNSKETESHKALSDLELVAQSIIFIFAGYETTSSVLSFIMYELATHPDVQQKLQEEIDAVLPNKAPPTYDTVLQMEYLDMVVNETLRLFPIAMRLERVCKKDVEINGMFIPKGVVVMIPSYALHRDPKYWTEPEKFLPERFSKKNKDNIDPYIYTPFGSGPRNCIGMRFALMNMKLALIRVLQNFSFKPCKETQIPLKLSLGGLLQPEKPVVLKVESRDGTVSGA
experimental readout: IC50 (µM)
// note: answer is a bare numeric in µM

Lookup: Indicate its recorded IC50; the molecule in question is CCS(=O)(=O)c1ccc2nc(-c3ccc(F)c(-c4ccccc4)c3)[nH]c2c1
Found: 5.6

Lookup: Indicate its recorded IC50; the molecule in question is CCS(=O)(=O)c1ccc2nc(-c3cc(-c4ccccc4)ccc3Cl)[nH]c2c1
Found: 5

The reported numbers originate from ChEMBL document CHEMBL2069245.
